molecular target: recombinant soluble 1957 H2 HA (A/Japan/305+/1957) (Influenza A virus A/Japan/305+/1957 (H2N2)); assay: ELISA, supernate
MEASURED PARAMETER: log10 of OD (log10 of the value in OD)
Give log10 of OD, with OD taken in OD.

{"BINDER": "mAb 6J24 (antibody, V domains shown) VH: EVQLVESGGGLVQPGRSLRLSCVGSGFNFDGYAMQWVRQVPGKGLEWVSGISWHSDSTGYADSVRGRFTISRDNAKNSLYLQMDSLRPEDTAFYYCGKSIGHVGGSYRHPIDYWGQGTLVTVS VL: DIQLTQSPSSLSASVGDRVTITCRASQGITDYLAWYQQKPGTIPKLLIYAASTLQSGVPSRFSGGGYGTDFTLTISSLQPEDVATYYCQKYNSAPLTFGGGTKVEIKR", "log10 of OD": -0.66}
{"BINDER": "mAb 8F24 (antibody, V domains shown) VH: EVQLLESGGGLVQPGGSLRLSCAASGFAFSSYGMSWVRQAPGKGLEWVSAFSGSGTSTYYADSVKGRFTISRDKSKNTLYLQMNSLRAEDTAIYYCAKPPGPYIVVAGLFENWGRGTLVTVS VL: EIVMTQSPATLSVSPGERVTLSCRASQSITDGLAWYQQKSGQAPRLLIYGASTRATGIPARFSGSGSGTEFTLTISSLQSEDFAVYYCQQYNNWPPVTFGQGTKVEIKR", "log10 of OD": -1.14}
{"BINDER": "mAb 25F7 (antibody, V domains shown) VH: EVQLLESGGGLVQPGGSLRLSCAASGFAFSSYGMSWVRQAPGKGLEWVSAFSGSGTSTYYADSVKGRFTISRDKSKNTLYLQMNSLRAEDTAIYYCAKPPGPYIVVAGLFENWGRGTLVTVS VL: QSVLTQPPSVSGAPGQRVTISCTGTSSNIGAGYEVHWYQQLPGTAPKLIINANTNRPSGVPDRFSGSQSGTSASLAITGLRAEDEADYYCQSFDSSLSGWLFGGGTKLTVLG", "log10 of OD": -0.06}
{"BINDER": "mAb 6K14 (antibody, V domains shown) VH: EVQLVESGAEVKKPGASVKVSCKASGYTFTSFDINWVRQAPGQGLEWMGWMTPTSGKTGYAQKFQGRITMTRNTSINTAYMELSSLRSEDTAVYFCARGPERRTTIFDVILDWFDPWGQGTLVTVS VL: DIVMTQSPFSLSLSPGERATLSCRASQSISNYLAWYQQKPGQAPRLLIYDSSNRATGVPARFSGSGSGTDFTLTISSLEPEDFAVYYCQQRSNWMYTFGQGTKVEIKR", "log10 of OD": 0.29}
{"BINDER": "mAb 5J8 (antibody, V domains shown) VH: EVQLVESGPGLVKPSDILSLTCAVSGYSISSNYYWGWIRQPPGKGLEWIGSIYHSGSTYYKPSLESRLGISVDTSKNQFSLKLSFVSAADTAVYYCARHVRSGYPDTAYYFDKWGQGTLVTVS VL: SYVLTQPPSVSVAPGETARISCGGNNIGTKVLHWYQQTPGQAPVLVVYDDSDRPSGIPERFSGSNSGNTATLTISRVEVGDEADYYCQVWDISTDQAVFGGGTKLTVLG", "log10 of OD": -1.11}
{"BINDER": "mAb 3J10 (antibody, V domains shown) VH: EVQLVESGGGVVQPGRSLRLSCAASGFSFSNYAMHWVRQAPGKGLEWVALISFDGSDKYYADSVKGRFTMSRDNSKNTLYLQMNSLRAEDTAVYYCARDEPYCGGDCFAFDVWGQGTMVTVS VL: QSVLTQPPSVSGAPGQRVTISCTGSSSNIGAGYDVHWYQQLPGTAPKLLIYANNNRPSGVPDRFSGSKSGTSASLAITGLQAEDEADYYCQSYDSSLSGGVFGTGTTVTVLG", "log10 of OD": -1.13}
{"BINDER": "mAb 2O10 (antibody, V domains shown) VH: EVQLVESGGGLVQPGGSLRLSCAASGFTFNSYWMTWVRQAPGKGLEWVANINQDGSEKFFVDSVKGRFTISRDNAKTSLYLQMNSLRVEDTAVYYCAREGAPYDTYYYYYAMDVWGQGTTVTVS VL: QSVLTQPPSVSGAPGQRVTISCTGTSSNIGAGYGVHWYQQLPGAAPKLLVYGNSNRPSGVPDRFSGSKSGTSASLAITGLQAEDEADYYCQSYDISLSGSNVFGTGTKVTVLG", "log10 of OD": -1.14}
{"BINDER": "mAb 18G6 (antibody, V domains shown) VH: QVQLKESGPGLVKPSETLSLTCTVSGGSISSSNYNWGWIRQPPGKGLEWIGSVYYSGSTYFNPSLKSRVTISVDTSKNQFSLKLTSVTAADTAVYYCARLIAFYYDTNGYTWGQGTLVTVS VL: NSIMTQSPFTLSASVGDKVTITCRASQSISPWLAWYQQKPGKAPKLLIYKASSLETGVPSRFSGSESGTEFTLTISGLQPDDFATYYCQQYSSFARTFGQGTKVEIKR", "log10 of OD": -0.12}
{"BINDER": "mAb 11J19 (antibody, V domains shown) VH: EVQLQESGPGLVKPSETLSLSCTVSGGSITRSSYYWGWIRQPPGKGLEWIGNIYYSGTTYYNPSLKSRVTISVDTSKNQFSLKLSSVTAADTAVYYCARLYGSGLDYWGQGTLVTVS VL: DIQLTQSPSFLSASVGDRVTITCRASQGSSRYVAWYQQKPGKAPKLLILAASTLHTGVPSRFSGSGSGTEFTLTISSLQPEDFATYSCQQLNGFLLTFGGGTKVEIKR", "log10 of OD": -1.10}
{"BINDER": "mAb 25J3 (antibody, V domains shown) VH: QVQLQESGPGLVRPSETLSLTCNVSGDSINDYYWSWIRQPPGKGLEWIGYIYYSGSTNYNPSLNSRVTISVEMSKNQFSLILNSVTAADTAVYYCARVDYDSGGSFDPWGQGTLVTVS VL: QSVLTQPPSVSGAPGQRVTISCTGSSSNIGAGYDVHWYQQLPGTAPKLLIYGNSNRPSGVPDRFSGSKSGTSASLAITGLQAEDEADFYCQSYDSRLSGYVFGTGTKVTVLG", "log10 of OD": -1.15}

Moving on to the next binder.
The reported log10 of OD of the binder mAb 3E22 (antibody, V domains shown) VH: EVQLVESGAEVKKPGASVKVSCKASGYTFSRYYIHWVRQAPGQELEWMGWINPDSGDTNYAQKFRGRVTMARDTSISTVYMELNSLRYDDTAVYFCARIIWSSSGMDVWGQGTTVTVS VL: QSALTQPASVSGSPGQSITISCTGTSSDVGSYNLVSWYQQHPGKAPKLMIYEVSKRPSGVSNRFSGSKSGNTASLTISGLQAEDEADYYCHLYVGSSNWVFGGGTKLAVLG was 0.07
